Test: basal 3T3-L1 adipocyte mitochondrial potential changes, profiling panel, cell-based, JC-1 fluorescence, 3T3-L1 adipocytes, 24 h, 100 nL compound (AID 1168); further: test concentration not given here
Conditions: JC-1 mitochondrial fluorescence, higher = more signal, called active from +8 up or from −8 down
Quantity Kind: z-score

C#CCN=C(N)N ... 0.268
C=C(/C(=C/C[C@@H](OC(C)=O)c1ccccc1OCCO)c1cc(C(=O)OC)ccc1OC)C(C)C ... 0.118
CCCCC(O)C1C=CC2C(=O)NC(=O)C2N1Nc1ccccn1 (stereo unspecified) ... -0.285
NC(=O)NCC#Cc1ccc2c(c1)[C@]1(C(=O)N2)[C@H](C(=O)Nc2nc3ccccc3s2)[C@H]2C(=O)O[C@H](c3ccccc3)[C@H](c3ccccc3)N2[C@@H]1c1ccc(OCCO)cc1 ... 0.272
C=CCNC(=O)[C@@H]1[C@H]2C(=O)O[C@H](c3ccccc3)[C@H](c3ccccc3)N2[C@H](c2ccc(O)cc2)[C@@]12C(=O)Nc1ccc(C#CC3(O)CCCCCC3)cc12 ... -0.41
C[N+](C)(C)CCCC[C@@H]1NC(=O)[C@H]2C[C@@H](C(=O)NCCCCCNC(=O)CS)[C@@H](c3ccc(O)cc3)N2C1=O ... -0.0341
C=CCC(OC(C)=O)[C@@H]1[C@@H](N(Cc2ccc(-c3cccc(C(F)(F)F)c3)o2)C(=O)Cc2ccc(OC)cc2)c2cc(OCCCO)ccc2N1C(=O)c1ccc2ccccc2n1 (stereo partly specified) ... 0.253
COC(=O)C(CC#Cc1ccc2c(c1)[C@]1(C(=O)N2)[C@H](c2ccc(O)cc2)N2[C@H](c3ccccc3)[C@H](c3ccccc3)OC(=O)[C@H]2[C@@H]1C(=O)N1CCc2cc(OC)c(OC)cc2C1)C(=O)OC ... 0.124
[N-]=[N+]=NCc1ccccc1[C@H]1OC(c2ccc(OCCCO)cc2)=N[C@@]1(Cc1ccccc1)C(=O)N1CCOCC1 ... -1.67
COC(=O)C1(CC(C)C)C=C2C(=C(C(C)C)C(=O)C2C)CN1 (stereo unspecified) ... -1.46
COCCOC(=O)N1C(=O)[C@@]2(c3cc(C#CC4(O)CCCCCC4)ccc31)[C@H](C(=O)NC[C@H](O)c1ccccc1)[C@H]1C(=O)O[C@H](c3ccccc3)[C@H](c3ccccc3)N1[C@@H]2c1ccc(O)cc1 ... -0.11
CO[C@H]1O[C@H](CO)[C@@H](OC(=O)Nc2ccc(C(F)(F)F)cc2)[C@H](OC(=O)Nc2ccccc2-c2ccccc2)[C@H]1OC(=O)Nc1ccccc1-c1ccccc1 ... 0.0902
CC(C)C(=C=CC[C@@H](O)c1ccccc1OCCO)C[C@@H](O)c1cc(Cl)cc(Cl)c1O ... -0.00407
O=C1OCCC/C=C\[C@H]2OC34C=CCN(Cc5ccccc5)C(=O)[C@H]3N(CCCCCO)C(=O)[C@@H]4C12 (stereo partly specified) ... -0.0419
COc1cccc(C[C@H]2C[C@@H](CO[Si](C(C)C)(C(C)C)C(C)C)N3C(=O)[C@@]4(C(C)=O)O[C@@]23[C@@H]2C(=O)N(C)C(=O)[C@@H]24)c1 ... 1.29
C=C(CCCC)/C(=C/C[C@H](OC(C)=O)c1cccc(OCCO)c1)c1cc(C(=O)OC)ccc1OC ... 0.18
CCCC[C@@H]1C[C@H]1[C@@H](NC(=O)c1ccc(C(F)(F)F)cc1)c1ccc(C(=O)OC)cc1 ... 0.282
CC(C)[C@@H](C(=O)O)n1cc(-c2ccccc2)nn1 ... -1.2
Cc1ccc(S[C@]2(C(=O)NCCN3CCOCC3)CC(=O)N(C3CCCCC3)[C@@H]2c2ccc(CO)cc2I)cc1 ... 0.11
COC(=O)C1=CC(CCCO)=CC(C2CC2)N(Cc2cccc(OC(F)(F)F)c2)C=C1C(=O)OC (stereo unspecified) ... 0.767
O=C1N(CCS(=O)(=O)c2ccccc2)c2ccccc2[C@@H]2OC(c3ccc(OCCCO)cc3)=N[C@]12CCS(=O)(=O)c1ccccc1 ... 1.48
CC(C)C[C@@H]1NC(=O)[C@@H]2C[C@H](C(=O)O)[C@H](c3ccc(O)cc3)N2C1=O ... -0.773
CCCCCCc1nc(-c2ccc(OC)nc2)cc2c1[Si](C(C)C)(C(C)C)OC2 ... -0.191
COC(=O)[C@@]1(Cc2ccc(OC)cc2)[C@H]2c3cc(C(=O)N(C)C)n(Cc4ccsc4Br)c3C[C@H]2CN1C(=O)c1ccccc1 ... 0.171
CCCC[C@H]1OB(O)C[C@H]2C1=C(COC)C[C@H]1C(=O)C=CC(=O)[C@H]12 ... -1.46
COC(=O)[C@H](Cc1ccc(O)cc1)N1CC2=CCCC=C[C@@H]2[C@H]1[C@H](O)Cc1ccccc1 ... -0.501
O=c1cccc(-c2ccccc2C(F)(F)F)o1 ... 0.254
Cc1ccccc1C(O)C1C=CC2C(=O)N(c3ccccc3)C(=O)C2N1Nc1ccccc1F (stereo unspecified) ... -1.49
CC(C)=CCN(C(=O)C#Cc1ccccc1)[C@H](CO)c1ccccc1 ... 0.983
CC=CC(O)C1C=CC2C(=O)N(C)C(=O)C2N1NC(=O)OC(C)(C)C (stereo unspecified) ... -0.238
C[N+](C)(C)CCCCCCNC(=O)[C@@H]1C[C@@H]2C(=O)N[C@@H](Cc3ccccc3)C(=O)N2[C@@H]1c1ccc(O)cc1 ... -0.055
